Biological target: Xylanase (Bacteroides thetaiotaomicron)
Sequence (Q8A8H5 whole entry, change not shown): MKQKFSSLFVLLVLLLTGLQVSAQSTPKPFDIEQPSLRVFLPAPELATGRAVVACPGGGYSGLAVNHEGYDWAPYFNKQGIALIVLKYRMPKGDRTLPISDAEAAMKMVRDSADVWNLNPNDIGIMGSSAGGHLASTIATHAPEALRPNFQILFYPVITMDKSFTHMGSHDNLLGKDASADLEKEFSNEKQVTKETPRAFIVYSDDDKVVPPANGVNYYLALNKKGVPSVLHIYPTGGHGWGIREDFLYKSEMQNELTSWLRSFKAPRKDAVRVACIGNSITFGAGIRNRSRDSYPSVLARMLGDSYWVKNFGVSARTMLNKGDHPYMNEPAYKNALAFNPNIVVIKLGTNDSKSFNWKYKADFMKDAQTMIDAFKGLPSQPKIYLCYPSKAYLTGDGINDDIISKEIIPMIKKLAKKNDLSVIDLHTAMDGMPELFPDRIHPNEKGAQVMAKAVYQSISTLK
Assay: The drug is tested on Bacteroides thetaiotaomicron strain: VPI-5482 for biotransformation. The drug concentrations were measured before and after a 12-h incubation by liquid-chromatography-coupled mass spectrometry (LC–MS)
Assay type: ADME
Design: dose 2 uM
Conditions: 2 µM

[
  {
    "molecule": "CC(=O)Oc1ccc(C(c2ccc(OC(C)=O)cc2)c2ccccn2)cc1",
    "Bacterial Biotransformation": "Compound metabolized"
  },
  {
    "molecule": "CC(=O)SCC(Cc1ccccc1)C(=O)NCC(=O)OCc1ccccc1 (centres undefined)",
    "Bacterial Biotransformation": "Compound metabolized"
  },
  {
    "molecule": "CCOC(=O)C1=C(C)NC(C)=C(C(=O)OC)C1c1cccc([N+](=O)[O-])c1 (centres undefined)",
    "Bacterial Biotransformation": "Compound metabolized"
  }
]

* * *

Conditions: bacteroides eggerthii, 12 h, 2 µM
Description: The drug is tested on Bacteroides eggerthii strain: DSM20697 for biotransformation. The drug concentrations were measured before and after a 12-h incubation by liquid-chromatography-coupled mass spectrometry (LC–MS)
Non-standard residues stand in square brackets, D forms with d. Residues, ends and D or L forms follow the SMILES beside them. pGlu = O=C1CC[C@@H](C(=O)O)N1; Thz = O=C(O)[C@@H]1CSCN1

[
  {
    "compound": "COc1ccc2[nH]c([S+]([O-])Cc3ncc(C)c(OC)c3C)nc2n1 (configuration not stated)",
    "Bacterial Biotransformation": "Compound metabolized"
  },
  {
    "compound": "CN1C(=O)CC(C)(c2ccccc2)C1=O (configuration not stated) [METHSUXIMIDE]",
    "Bacterial Biotransformation": "Compound NOT metabolized"
  },
  {
    "compound": "COc1cc2nc(N3CCN(C(=O)C4CCCO4)CC3)nc(N)c2cc1OC (configuration not stated)",
    "Bacterial Biotransformation": "Compound NOT metabolized"
  },
  {
    "compound": "N[C@@H](Cc1ccc(N(CCCl)CCCl)cc1)C(=O)O",
    "Bacterial Biotransformation": "Compound metabolized"
  },
  {
    "compound": "CN(C)CC(c1ccc(O)cc1)C1(O)CCCCC1.O=C(O)CCC(=O)O (configuration not stated) [DESVENLAFAXINE SUCCINATE]",
    "Bacterial Biotransformation": "Compound NOT metabolized"
  },
  {
    "compound": "CCCCCCOC(=O)/N=C(/N)c1ccc(NCc2nc3cc(C(=O)N(CCC(=O)OCC)c4ccccn4)ccc3n2C)cc1.CS(=O)(=O)O [DABIGATRAN ETEXILATE MESYLATE]",
    "Bacterial Biotransformation": "Compound NOT metabolized"
  },
  {
    "compound": "CN1C[C@H](C(=O)N[C@]2(C)O[C@@]3(O)[C@@H]4CCCN4C(=O)[C@H](Cc4ccccc4)N3C2=O)C=C2c3cccc4[nH]cc(c34)C[C@H]21.CN1C[C@H](C(=O)N[C@]2(C)O[C@@]3(O)[C@@H]4CCCN4C(=O)[C@H](Cc4ccccc4)N3C2=O)C=C2c3cccc4[nH]cc(c34)C[C@H]21.O=C(O)C(O)C(O)C(=O)O [ERGOTAMINE TARTRATE]",
    "Bacterial Biotransformation": "Compound metabolized"
  },
  {
    "compound": "Cc1nc(-c2ccc(OCC(C)C)c(C#N)c2)sc1C(=O)O",
    "Bacterial Biotransformation": "Compound NOT metabolized"
  },
  {
    "compound": "Nc1nnc(-c2cccc(Cl)c2Cl)c(N)n1",
    "Bacterial Biotransformation": "Compound NOT metabolized"
  },
  {
    "compound": "COC1=C(OC)C(=O)C(CCCCCCCCCCO)=C(C)C1=O",
    "Bacterial Biotransformation": "Compound NOT metabolized"
  },
  {
    "compound": "Nc1nc2ccc(OC(F)(F)F)cc2s1",
    "Bacterial Biotransformation": "Compound metabolized"
  },
  {
    "compound": "C[C@]12CCC(=O)C=C1[C@@H]1C[C@@H]1[C@H]1[C@@H]3[C@@H]4C[C@@H]4[C@@]4(CCC(=O)O4)[C@@]3(C)CC[C@@H]12",
    "Bacterial Biotransformation": "Compound NOT metabolized"
  },
  {
    "compound": "OCCN(CCO)c1nc(N2CCCCC2)c2nc(N(CCO)CCO)nc(N3CCCCC3)c2n1",
    "Bacterial Biotransformation": "Compound NOT metabolized"
  },
  {
    "compound": "CC1OC(OC2C(O)CC(OC3C(O)CC(OC4CCC5(C)C(CCC6C5CCC5(C)C(C7=CC(=O)OC7)CCC65O)C4)OC3C)OC2C)CC(O)C1O (configuration not stated)",
    "Bacterial Biotransformation": "Compound metabolized"
  },
  {
    "compound": "COc1ccc2[nH]c([S+]([O-])Cc3ncc(C)c(OC)c3C)nc2c1 (configuration not stated)",
    "Bacterial Biotransformation": "Compound metabolized"
  },
  {
    "compound": "CN1[C@@H]2CC[C@H]1C[C@@H](OC(=O)c1c[nH]c3ccccc13)C2",
    "Bacterial Biotransformation": "Compound NOT metabolized"
  },
  {
    "compound": "CCOC(=O)[C@H](CCc1ccccc1)N[C@@H](C)C(=O)N1Cc2ccccc2C[C@H]1C(=O)O",
    "Bacterial Biotransformation": "Compound metabolized"
  },
  {
    "compound": "C[C@@H]1C[C@H]2[C@@H]3CCC4=CC(=O)C=C[C@]4(C)[C@@]3(F)[C@@H](O)C[C@]2(C)[C@@]1(O)C(=O)CO",
    "Bacterial Biotransformation": "Compound NOT metabolized"
  },
  {
    "compound": "C#C[C@]1(O)CC[C@H]2[C@@H]3CCC4=CC(=O)CC[C@@H]4[C@H]3CC[C@@]21CC",
    "Bacterial Biotransformation": "Compound NOT metabolized"
  },
  {
    "compound": "COCCCC/C(=N\\OCCN)c1ccc(C(F)(F)F)cc1.O=C(O)/C=C\\C(=O)O [FLUVOXAMINE MALEATE]",
    "Bacterial Biotransformation": "Compound NOT metabolized"
  },
  {
    "compound": "CC(N)C12CC3CC(CC(C3)C1)C2 (configuration not stated)",
    "Bacterial Biotransformation": "Compound NOT metabolized"
  },
  {
    "compound": "OCCOCCN1CCN(C2=Nc3ccccc3Sc3ccccc32)CC1",
    "Bacterial Biotransformation": "Compound NOT metabolized"
  },
  {
    "compound": "COC(=O)Nc1nc2ccc(C(=O)c3ccccc3)cc2[nH]1",
    "Bacterial Biotransformation": "Compound metabolized"
  },
  {
    "compound": "COc1ccc2c(c1OC)C(=O)O[C@@H]2[C@H]1c2c(cc3c(c2OC)OCO3)CCN1C",
    "Bacterial Biotransformation": "Compound NOT metabolized"
  },
  {
    "compound": "O=C1CC[C@@H](C(=O)N2CSC[C@H]2C(=O)O)N1 [PIDOTIMOD] ([pGlu]-[Thz]-OH)",
    "Bacterial Biotransformation": "Compound NOT metabolized"
  },
  {
    "compound": "CN(C)CCC=C1c2ccccc2C=Cc2ccccc21",
    "Bacterial Biotransformation": "Compound NOT metabolized"
  },
  {
    "compound": "Clc1ccc(Cn2c(CN3CCCC3)nc3ccccc32)cc1",
    "Bacterial Biotransformation": "Compound NOT metabolized"
  },
  {
    "compound": "CN1CCC(OC(c2ccccc2)c2ccccc2)CC1",
    "Bacterial Biotransformation": "Compound NOT metabolized"
  },
  {
    "compound": "O=C(O)CCc1nc(-c2ccccc2)c(-c2ccccc2)o1",
    "Bacterial Biotransformation": "Compound NOT metabolized"
  },
  {
    "compound": "CC(C)[C@H]1CC[C@H](C(=O)N[C@H](Cc2ccccc2)C(=O)O)CC1 [NATEGLINIDE]",
    "Bacterial Biotransformation": "Compound NOT metabolized"
  },
  {
    "compound": "CC(C)NCC(O)COc1ccc(COCCOC(C)C)cc1.CC(C)NCC(O)COc1ccc(COCCOC(C)C)cc1.O=C(O)/C=C/C(=O)O (configuration not stated) [BISOPROLOL FUMARATE]",
    "Bacterial Biotransformation": "Compound NOT metabolized"
  },
  {
    "compound": "CC(=O)CCCCn1c(=O)c2c(ncn2C)n(C)c1=O",
    "Bacterial Biotransformation": "Compound NOT metabolized"
  }
]

* * *

Assay: The drug is tested on Eubacterium ventriosum strain: ATCC27560 for biotransformation. The drug concentrations were measured before and after a 12-h incubation by liquid-chromatography-coupled mass spectrometry (LC–MS)
Assay type: ADME
Parameters: dose 2 uM, timepoint 0 vs 12 hours
Settings: 2 µM
endpoint label: Bacterial Biotransformation

[
  {
    "compound": "CN(C)CCOC(c1ccc(Cl)cc1)c1ccccn1.O=C(O)/C=C\\C(=O)O (stereo not drawn) [CARBINOXAMINE MALEATE]",
    "endpoint label": "Bacterial Biotransformation",
    "result": "Compound NOT metabolized"
  },
  {
    "compound": "CC[C@H](C)C(=O)O[C@H]1C[C@@H](C)C=C2C=C[C@H](C)[C@H](CC[C@@H]3C[C@@H](O)CC(=O)O3)[C@H]21",
    "endpoint label": "Bacterial Biotransformation",
    "result": "Compound NOT metabolized"
  },
  {
    "compound": "CCCCc1nc(Cl)c(CO)n1Cc1ccc(-c2ccccc2-c2nn[nH]n2)cc1",
    "endpoint label": "Bacterial Biotransformation",
    "result": "Compound NOT metabolized"
  },
  {
    "compound": "CCN(CC)CCNC(C(=O)OCCC(C)C)c1ccccc1.Cl.Cl (stereo not drawn)",
    "endpoint label": "Bacterial Biotransformation",
    "result": "Compound NOT metabolized"
  },
  {
    "compound": "CC1=C(CC(=O)O)c2cc(F)ccc2/C1=C\\c1ccc([S+](C)[O-])cc1 (stereo not drawn)",
    "endpoint label": "Bacterial Biotransformation",
    "result": "Compound NOT metabolized"
  },
  {
    "compound": "CN(C)CCOC(C)(c1ccccc1)c1ccccn1.O=C(O)CCC(=O)O (stereo not drawn) [DOXYLAMINE SUCCINATE]",
    "endpoint label": "Bacterial Biotransformation",
    "result": "Compound NOT metabolized"
  },
  {
    "compound": "CCOC(=O)[C@H](CCc1ccccc1)N[C@@H](C)C(=O)N1[C@H](C(=O)O)C[C@@H]2CCC[C@@H]21",
    "endpoint label": "Bacterial Biotransformation",
    "result": "Compound NOT metabolized"
  },
  {
    "compound": "CC(C)c1nc(CN(C)C(=O)N[C@H](C(=O)N[C@@H](Cc2ccccc2)C[C@H](O)[C@H](Cc2ccccc2)NC(=O)OCc2cncs2)C(C)C)cs1",
    "endpoint label": "Bacterial Biotransformation",
    "result": "Compound NOT metabolized"
  }
]
